// provenance: ChEMBL document CHEMBL5550111

# Tested on: MDA-MB-231
# assay comment: Cytotoxicity against human MDA-MB-231 cells assessed as maximum inhibition of cell viability upto 198 uM incubated for 72 hrs by MTS assay relative to control
# Type: functional
# test context: up to 198 µM
metric name: Imax (%)
// note: answer is a bare numeric in %

Worked cases, answers included:
C[C@H](NP(=O)(OC[C@H]1O[C@@H](n2ccc(N)nc2=O)C(F)(F)[C@@H]1O)Oc1ccccc1)C(=O)OCc1ccccc1 (some centres not stated) [FOSGEMCITABINE PALABENAMIDE]; 71
C[C@H](NP(=O)(OC[C@@H]1C[C@@H](O)[C@H](n2cnc3c(N)ncnc32)O1)Oc1ccccc1)C(=O)OCc1ccccc1 (some centres not stated) [FOSDESDENOSINE SIPALABENAMIDE]; 79
Nc1ccn([C@@H]2O[C@H](CO)[C@@H](O)C2(F)F)c(=O)n1 [GEMCITABINE]; 74
C[C@H](NP(=S)(OC[C@H]1O[C@@H](n2ccc(N)nc2=O)C(F)(F)[C@@H]1O)Oc1ccccc1)C(=O)OCc1ccccc1 (some centres not stated); 91
Nc1ncnc2c1ncn2[C@@H]1O[C@H](CO)C[C@H]1O [CORDYCEPIN]; 59

Exercise: Consider the compound CC(=O)O[C@H]1C(=O)[C@@]2(C)[C@H]([C@H](OC(=O)c3ccccc3)[C@]3(O)C[C@H](OC(=O)[C@H](O)[C@@H](NC(=O)c4ccccc4)c4ccccc4)C(C)=C1C3(C)C)[C@]1(OC(C)=O)CO[C@@H]1C[C@@H]2O [PACLITAXEL] and give its measured Imax.
Key: 70

Exercise: Consider the compound C[C@H](NP(=S)(OC[C@@H]1C[C@@H](O)[C@H](n2cnc3c(N)ncnc32)O1)Oc1ccccc1)C(=O)OCc1ccccc1 (some centres not stated) and give its measured Imax.
Key: 96

###

# Test system: MCF7
# assay comment: Cytotoxicity against human MCF7 cells assessed as maximum inhibition of cell viability upto 198 uM incubated for 72 hrs by MTS assay relative to control
# Type: functional
# test context: up to 198 µM
metric name: Imax
Answer with the value and then the unit.

Worked cases, answers included:
Nc1ncnc2c1ncn2[C@@H]1O[C@H](CO)C[C@H]1O [CORDYCEPIN]; 93%
C[C@H](NP(=O)(OC[C@@H]1C[C@@H](O)[C@H](n2cnc3c(N)ncnc32)O1)Oc1ccccc1)C(=O)OCc1ccccc1 (some centres undefined) [FOSDESDENOSINE SIPALABENAMIDE]; 90%

Exercise: Consider the molecule CC(=O)O[C@H]1C(=O)[C@@]2(C)[C@H]([C@H](OC(=O)c3ccccc3)[C@]3(O)C[C@H](OC(=O)[C@H](O)[C@@H](NC(=O)c4ccccc4)c4ccccc4)C(C)=C1C3(C)C)[C@]1(OC(C)=O)CO[C@@H]1C[C@@H]2O [PACLITAXEL] and give its measured Imax.
Key: 75%

Exercise: Consider the molecule C[C@H](NP(=S)(OC[C@@H]1C[C@@H](O)[C@H](n2cnc3c(N)ncnc32)O1)Oc1ccccc1)C(=O)OCc1ccccc1 (some centres undefined) and give its measured Imax.
Key: 100%

###

# Tested on: SK-MES-1
# assay comment: Cytotoxicity against human SK-MES-1 cells assessed as inhibition of cell viability incubated for 72 hrs by MTS assay
# Assay type: functional, cell-based
# test context: SK-MES-1, 72 h
# pIC50 per record follows
Note: pIC50 values are expressed as the negative base-10 logarithm of concentration in M.

Worked cases, answers included:
Nc1nc(=O)n([C@H]2C[C@H](O)[C@@H](CO)O2)cc1F; 7.05
C[C@H](NP(=O)(OC[C@H]1O[C@@H](n2ccc(N)nc2=O)C(F)(F)[C@@H]1O)Oc1ccccc1)C(=O)OCc1ccccc1 (some centres not stated) [FOSGEMCITABINE PALABENAMIDE]; 6.96
C[C@H](NP(=S)(OC[C@H]1O[C@@H](n2ccc(N)nc2=O)C(F)(F)[C@@H]1O)Oc1ccccc1)C(=O)OCc1ccccc1 (some centres not stated); 6.04
CC(=O)O[C@H]1C(=O)[C@@]2(C)[C@H]([C@H](OC(=O)c3ccccc3)[C@]3(O)C[C@H](OC(=O)[C@H](O)[C@@H](NC(=O)c4ccccc4)c4ccccc4)C(C)=C1C3(C)C)[C@]1(OC(C)=O)CO[C@@H]1C[C@@H]2O [PACLITAXEL]; 8.00
Nc1ccn([C@@H]2O[C@H](CO)[C@@H](O)C2(F)F)c(=O)n1 [GEMCITABINE]; 5.91

Exercise: Consider the compound C[C@H](NP(=S)(OC[C@H]1O[C@@H](n2cc(F)c(=O)[nH]c2=O)C[C@@H]1O)Oc1cccc2ccccc12)C(=O)OCc1ccccc1 (some centres not stated) and give its measured pIC50.
Key: 5.60

Exercise: Consider the compound C[C@H](NP(=O)(OC[C@H]1O[C@@H](n2cc(F)c(=O)[nH]c2=O)C[C@@H]1O)Oc1cccc2ccccc12)C(=O)OCc1ccccc1 (some centres not stated) [FOSIFLOXURIDINE NAFALBENAMIDE] and give its measured pIC50.
Key: 6.49

###

# Tested on: NCI-H1975
# assay comment: Cytotoxicity against human NCI-H1975 cells assessed as maximum inhibition of cell viability upto 198 uM incubated for 72 hrs by MTS assay relative to control
# Format: functional
# test context: up to 198 µM
metric name: Imax
Answer with the value and then the unit.

Worked cases, answers included:
C[C@H](NP(=O)(OC[C@H]1O[C@@H](n2cc(F)c(=O)[nH]c2=O)C[C@@H]1O)Oc1cccc2ccccc12)C(=O)OCc1ccccc1 (some centres undefined) [FOSIFLOXURIDINE NAFALBENAMIDE]; 72%
Nc1nc(=O)n([C@H]2C[C@H](O)[C@@H](CO)O2)cc1F; 91%
CC(=O)O[C@H]1C(=O)[C@@]2(C)[C@H]([C@H](OC(=O)c3ccccc3)[C@]3(O)C[C@H](OC(=O)[C@H](O)[C@@H](NC(=O)c4ccccc4)c4ccccc4)C(C)=C1C3(C)C)[C@]1(OC(C)=O)CO[C@@H]1C[C@@H]2O; 75%

# context switch: different molecule, same Imax
Exercise: Consider the molecule C[C@H](NP(=S)(OC[C@H]1O[C@@H](n2cc(F)c(=O)[nH]c2=O)C[C@@H]1O)Oc1cccc2ccccc12)C(=O)OCc1ccccc1 (some centres undefined) and give its measured Imax.
Key: 100%

###

# Test system: COLO 205
# assay comment: Cytotoxicity against human COLO 205 cells assessed as maximum inhibition of cell viability upto 198 uM incubated for 72 hrs by MTS assay relative to control
# Type: functional
# test context: up to 198 µM
metric name: Imax (%)
// note: answer is a bare numeric in %

Worked cases, answers included:
Nc1ncnc2c1ncn2[C@@H]1O[C@H](CO)C[C@H]1O [CORDYCEPIN]; 24
Nc1nc(=O)n([C@H]2C[C@H](O)[C@@H](CO)O2)cc1F; 88
C[C@H](NP(=O)(OC[C@@H]1C[C@@H](O)[C@H](n2cnc3c(N)ncnc32)O1)Oc1ccccc1)C(=O)OCc1ccccc1 (some centres undefined) [FOSDESDENOSINE SIPALABENAMIDE]; 87

Exercise: For the record C[C@H](NP(=O)(OC[C@H]1O[C@@H](n2ccc(N)nc2=O)C(F)(F)[C@@H]1O)Oc1ccccc1)C(=O)OCc1ccccc1 (some centres undefined) [FOSGEMCITABINE PALABENAMIDE] , what value of Imax is listed for COLO 205?
Key: 72

###

# IC50 per record follows
# Tested on: HT-29
# assay comment: Cytotoxicity against human HT-29 cells assessed as inhibition of cell viability incubated for 72 hrs by MTS assay
# Assay type: functional, cell-based
# test context: HT-29, 72 h
Answer with the value and then the unit.

Worked cases, answers included:
Nc1ncnc2c1ncn2[C@@H]1O[C@H](CO)C[C@H]1O [CORDYCEPIN]; 26300 nM
Nc1nc(=O)n([C@H]2C[C@H](O)[C@@H](CO)O2)cc1F; 130 nM

Exercise: Consider the compound C[C@H](NP(=S)(OC[C@@H]1C[C@@H](O)[C@H](n2cnc3c(N)ncnc32)O1)Oc1ccccc1)C(=O)OCc1ccccc1 (stereo not given in full) and give its measured IC50.
Key: 57900 nM

Exercise: Consider the compound C[C@H](NP(=O)(OC[C@H]1O[C@@H](n2cc(F)c(=O)[nH]c2=O)C[C@@H]1O)Oc1cccc2ccccc12)C(=O)OCc1ccccc1 (stereo not given in full) [FOSIFLOXURIDINE NAFALBENAMIDE] and give its measured IC50.
Key: 520 nM

Exercise: Consider the compound CC(=O)O[C@H]1C(=O)[C@@]2(C)[C@H]([C@H](OC(=O)c3ccccc3)[C@]3(O)C[C@H](OC(=O)[C@H](O)[C@@H](NC(=O)c4ccccc4)c4ccccc4)C(C)=C1C3(C)C)[C@]1(OC(C)=O)CO[C@@H]1C[C@@H]2O [PACLITAXEL] and give its measured IC50.
Key: 30 nM
